target: UniProtKB Q9NZQ7; assay: T cell activation luciferase reporter cell culture system (T Cell Activation Assay); assay type: cell-based; settings: luciferase reporter assay; PD-L1 aAPC/CHO-K1 cells with PD-1 effector Jurkat T cells
Recorded endpoint: pEC50
Just the number, please; pEC50 means minus log10 of the concentration in mol/L.

Completed entries (count: 2):
{"Structure smiles string": "COc1cc(-c2nccc(-c3cccc(-c4ccc(CNC5CCN(C(=O)C(C)C)CC5)c(OC)n4)c3Cl)c2Cl)ccc1CNC1CCN(C(C)=O)CC1", "Readout value": 7.82}
{"Structure smiles string": "COc1cc(-c2nccc(-c3cccc(-c4ccc5c(CNCC6CCOCC6)cn(C)c5n4)c3Cl)c2Cl)ccc1CNC1CCN(C(C)=O)CC1", "Readout value": 6.42}

Turning to the following compound.
QUERY: Identify the reported pEC50 for the following entry. COc1cc(-c2nccc(-c3cccc(-c4ccc(CNC[C@@H]5CCC(=O)N5)c(OC)n4)c3Cl)c2Cl)cc(F)c1CNC1CCN(C(C)=O)CC1
RESULT: 7.71

====

molecular target: PD-L1 His protein / PD-1 Fc protein (Homo sapiens (Human)); assay: HTRF Assay (PD-1/PD-L1 interaction); format: binding; conditions: PD-L1 His 6 nM, PD-1 Fc 6 nM
Sequence (Q9NZQ7 19-238): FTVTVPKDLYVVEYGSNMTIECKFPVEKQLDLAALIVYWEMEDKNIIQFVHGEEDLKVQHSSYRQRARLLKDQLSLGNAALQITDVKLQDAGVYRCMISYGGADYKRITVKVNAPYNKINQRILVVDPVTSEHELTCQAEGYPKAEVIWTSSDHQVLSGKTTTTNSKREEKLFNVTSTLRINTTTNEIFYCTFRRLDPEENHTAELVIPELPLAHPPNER
Recorded endpoint: pIC50
Just the number, please; pIC50 means minus log10 of the concentration in mol/L.

{"Structure smiles string": "COc1cc(-c2nccc(-c3cccc(-c4ccc(CN[C@H]5C[C@](C)(O)C5)c(OC)n4)c3Cl)c2Cl)cc2c1CN(C[C@H](C)O)CC2", "Readout value": 8.25}
{"Structure smiles string": "CNCc1ccc(-c2cccc(-c3ccnc(-c4cc(CNC56CC(C(=O)O)(C5)C6)cc(OC)c4)c3Cl)c2Cl)nc1OC", "Readout value": 7.63}
{"Structure smiles string": "COc1cc(-c2nccc(-c3cccc(-c4ccc(CNC5CCN(C(C)=O)CC5)c(OC)n4)c3Cl)c2Cl)ccc1CN1CCOCC1", "Readout value": 7.61}
{"Structure smiles string": "COc1nc(-c2cccc(-c3ccnc(-c4ccc5c(CNC[C@@H]6CCO6)cn(C)c5c4)c3Cl)c2Cl)ccc1CNC[C@@H]1CCC(=O)N1", "Readout value": 7.14}
{"Structure smiles string": "COc1cc(-c2nccc(-c3cccc(-c4ccc(CNC5CCN(C(C)=O)CC5)c(OC)n4)c3Cl)c2Cl)ccc1CN[C@H](CO)CC(=O)O", "Readout value": 10.10}
{"Structure smiles string": "COc1cc(-c2nccc(-c3cccc(-c4ccc(CN5CC6(C5)CN(C(C)=O)C6)c(OC)n4)c3Cl)c2Cl)ccc1CN1CC2(CNC(=O)C2)C1", "Readout value": 8.73}
{"Structure smiles string": "COc1nc(-c2cccc(-c3ccnc(-c4cc(OC)c5nc(CNC6CC7(COC7)C6)cn5c4)c3Cl)c2Cl)ccc1CNC[C@@H]1CCC(=O)N1", "Readout value": 9.07}
{"Structure smiles string": "COc1cc(-c2nccc(-c3cccc(-c4ccc(CNC5CCOCC5)c(OC)n4)c3Cl)c2C)ccc1CNC1CCOCC1", "Readout value": 8.17}

QUERY: Identify the reported pIC50 for the following entry. COc1cc(-c2nccc(-c3cccc(-c4ccc(CNC5CCN(C(C)=O)CC5)c(OC)n4)c3Cl)c2Cl)cc(F)c1CNC1CCN(C(C)=O)CC1
RESULT: 9.15

QUERY: Identify the reported pIC50 for the following entry. COc1cc(-c2nccc(-c3cccc(NC(=O)c4ccc(CNC5CCN(C(C)=O)CC5)cn4)c3C)c2Cl)ccc1CNC1CCN(C(C)=O)CC1
RESULT: 9.36

QUERY: Identify the reported pIC50 for the following entry. COc1nc(-c2cccc(-c3ccnc(-c4cc(OC)c5nc(CN6CC(C)(O)C6)cn5c4)c3Cl)c2Cl)ccc1CNC[C@@H]1CCC(=O)N1
RESULT: 8.71

QUERY: Identify the reported pIC50 for the following entry. CNCc1ccc(-c2cccc(-c3ccnc(-c4ccc(CN5CC6(CNC(=O)C6)C5)c(OC)c4)c3Cl)c2Cl)nc1OC
RESULT: 8.56

====

EC50 by entry:
biological target: human PD-L1 (Homo sapiens (Human), UniProt Q9NZQ7); experiment: T cell activation luciferase reporter cell culture system (T Cell Activation Assay); assay type: cell-based; conditions: luciferase reporter assay; PD-L1 aAPC/CHO-K1 cells with PD-1 effector Jurkat T cells
Sequence (Q9NZQ7 19-290): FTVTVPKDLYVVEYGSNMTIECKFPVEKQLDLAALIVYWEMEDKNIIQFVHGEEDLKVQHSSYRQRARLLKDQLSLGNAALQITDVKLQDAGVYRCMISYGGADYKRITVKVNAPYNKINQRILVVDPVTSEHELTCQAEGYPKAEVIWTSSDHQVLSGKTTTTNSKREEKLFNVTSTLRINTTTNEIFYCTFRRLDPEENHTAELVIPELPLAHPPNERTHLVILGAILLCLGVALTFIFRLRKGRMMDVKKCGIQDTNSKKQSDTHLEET

{"Molecule": "COc1cc(-c2nccc(-c3cccc(-c4ccc(CN5CC6(CCC(=O)N6)C5)c(OC)n4)c3Cl)c2Cl)ccc1CN1CC2(CCC(=O)N2)C1", "Target entity": "human PD-L1 (Homo sapiens (Human), UniProt Q9NZQ7)", "EC50": "8.54 nM"}

QUERY: Specify EC50 for COc1nc(-c2ccnc(-c3cccc4c3CCC[C@@H]4Nc3nc(OC)c(CNC4(C(=O)O)CC4)cc3C(F)(F)F)c2Cl)ccc1CNC[C@@H]1CCC(=O)N1 , system human PD-L1 (Homo sapiens (Human), UniProt Q9NZQ7).
RESULT: ≥ 10000 nM

QUERY: Specify EC50 for COc1nc(-c2cccc(-c3ccnc(-c4ccc5c(CNCCO)cn(C)c5c4)c3Cl)c2Cl)ccc1CNC[C@@H]1CCC(=O)N1 , system human PD-L1 (Homo sapiens (Human), UniProt Q9NZQ7).
RESULT: 94 nM

QUERY: Specify EC50 for COc1nc(-c2cccc(-c3ccnc(-c4ccc5c(CN(C)CCO)nn(C)c5c4)c3Cl)c2Cl)ccc1CNC[C@@H]1CCC(=O)N1 , system human PD-L1 (Homo sapiens (Human), UniProt Q9NZQ7).
RESULT: 52.4 nM

QUERY: Specify EC50 for COc1cc(-c2nccc(-c3cccc(-c4ccc(CN5CC6(CCN(C(C)=O)C6)C5)c(OC)n4)c3Cl)c2Cl)ccc1CN1CC2(CCN(C(C)=O)C2)C1 , system human PD-L1 (Homo sapiens (Human), UniProt Q9NZQ7).
RESULT: 29.6 nM

QUERY: Specify EC50 for COc1cc(-c2nccc(-c3cccc(-c4ccc(CN5CCC(NC(C)=O)CC5)c(OC)n4)c3Cl)c2Cl)ccc1CNC[C@H]1CCC(=O)N1 , system human PD-L1 (Homo sapiens (Human), UniProt Q9NZQ7).
RESULT: 25.5 nM

QUERY: Specify EC50 for COc1cc(-c2nccc(-c3cccc(-c4ccc(CNC5CCN(C(C)C)CC5)c(OC)n4)c3Cl)c2Cl)ccc1CNC1CCN(C(C)C)CC1 , system human PD-L1 (Homo sapiens (Human), UniProt Q9NZQ7).
RESULT: 43 nM

QUERY: Specify EC50 for COc1nc(-c2cccc(-c3ccnc(-c4cc(OC)c5nc(CN6CC(C)(O)C6)cn5c4)c3Cl)c2Cl)ccc1CNC[C@@H]1CCC(=O)N1 , system human PD-L1 (Homo sapiens (Human), UniProt Q9NZQ7).
RESULT: 62.6 nM

====

target: human PD-L1 (Homo sapiens (Human), UniProt Q9NZQ7); assay: T cell activation luciferase reporter cell culture system (T Cell Activation Assay); assay type: cell-based; conditions: luciferase reporter assay; PD-L1 aAPC/CHO-K1 cells with PD-1 effector Jurkat T cells
Label met when EC50 < 90 nM; otherwise not met.

Reference set, count: 6
{"Structure smiles string": "COc1cc(-c2nccc(-c3cccc(-c4ccc(CNC5CCN(C(C)=O)CC5)c(OC)n4)c3Cl)c2Cl)ccc1CNCCN1CCNC(=O)C1", "Label class": "met"}
{"Structure smiles string": "COc1cc(-c2cccc(-c3ccnc(-c4cnc(CN5CC6(CNC(=O)C6)C5)c(OC)c4)c3Cl)c2Cl)ccc1CN1CC2(CNC(=O)C2)C1", "Label class": "not met"}
{"Structure smiles string": "COc1nc(-c2cccc(-c3ccnc(-c4ccc5c(CNC[C@H](C)OC)cn(C)c5c4)c3Cl)c2Cl)ccc1CNC[C@@H]1CCC(=O)N1", "Label class": "not met"}
{"Structure smiles string": "COc1nc(-c2ccnc(-c3cccc4c3CC[C@@H]4Nc3nc(OC)c(CN[C@H]4C[C@](C)(O)C4)cc3C(F)(F)F)c2Cl)ccc1CN[C@H]1C[C@](C)(O)C1", "Label class": "not met"}
{"Structure smiles string": "CNCc1ccc(-c2ccnc(-c3cccc4c3CCC[C@@H]4Nc3nc(OC)c(CNC)cc3C(F)(F)F)c2Cl)nc1OC", "Label class": "not met"}
{"Structure smiles string": "COc1cc(-c2nccc(-c3cccc(-c4ccc(CNC5CCN(C(=O)C6CC6)CC5)c(OC)n4)c3Cl)c2Cl)cc(F)c1CNC1CCN(C(=O)C2CC2)CC1", "Label class": "met"}

QUERY: API: query returns whether the molecule falls strictly under 90 nM in EC50. Query: COc1nc(-c2cccc(-c3ccnc(-c4cc(OC)c5nc(CNC[C@@H]6CCC(=O)N6)nn5c4)c3Cl)c2Cl)ccc1CNC[C@@H]1CCC(=O)N1
RESULT: met

QUERY: API: query returns whether the molecule falls strictly under 90 nM in EC50. Query: COc1nc(-c2ccnc(-c3cccc4c3CCC[C@@H]4Nc3nc(OC)c(CNC[C@@H]4CCC(=O)N4)cc3C(F)(F)F)c2Cl)ccc1CNC[C@@H]1CCC(=O)N1
RESULT: not met

QUERY: API: query returns whether the molecule falls strictly under 90 nM in EC50. Query: COc1cc(-c2nccc(-c3cccc(-c4cc(Cl)c(CNC[C@@H]5CCC(=O)N5)c(OC)n4)c3Cl)c2Cl)cc2c1CN(CCO)CC2
RESULT: met

QUERY: API: query returns whether the molecule falls strictly under 90 nM in EC50. Query: COc1nc(-c2cccc(-c3ccnc(-c4cc5c(OC)nc(CNCCO)nn5c4)c3Cl)c2Cl)ccc1CNC1CCN(C(C)=O)CC1
RESULT: not met

QUERY: API: query returns whether the molecule falls strictly under 90 nM in EC50. Query: COc1cc(-c2nccc(-c3cccc(NC(=O)c4ccc(CNC[C@@H]5CCC(=O)N5)cn4)c3C)c2Cl)ccc1CNCCO
RESULT: not met

QUERY: API: query returns whether the molecule falls strictly under 90 nM in EC50. Query: COc1nc(-c2cccc(-c3ccnc(-c4ccc5c(c4)N(C)CCN(C[C@@H]4CCC(=O)N4)C5)c3Cl)c2Cl)ccc1CNC[C@@H]1CCC(=O)N1
RESULT: met
